target: Enoyl-[acyl-carrier-protein] reductase [NADPH] FabI (Staphylococcus aureus, UniProt Q6GI75)
As shown below, each of these compounds has a reported pIC50 value.
API: returns pIC50 as number; meaning -log10 of concentration in mol/L.

Solved cases below.
>>> numeric_readout("Cc1cc(Cl)ccc1Oc1coc(/C=C/c2ccc[nH]2)cc1=O")
5.24
>>> numeric_readout("COCc1cc(=O)c(Oc2ccc(Cl)cc2)co1")
5.28
>>> numeric_readout("O=c1cc(COc2ccccc2)n(C2CC2)cc1Oc1ccc(Cl)cc1Cl")
6.32

Field request: pIC50 | item: "Cc1ccc(Oc2coc(/C=C/c3ccccc3)cc2=O)c(C)c1" 5.27

Data request, read-out pIC50, for "Cc1cc(Cl)ccc1Oc1coc(/C=C/c2ccsc2)cc1=O" 5.51

Param item = "Cc1ccc(Oc2cn(C)c(COc3ccccc3)cc2=O)c(C)c1" ; retrieve measured pIC50. 7.10

Reported pIC50 for "Cc1cc(Cl)ccc1Oc1cn(C2CC2)c(COc2ccccc2)cc1=O" : what is it? 6.33

Given the entry "Cn1cc(Oc2cccc([N+](=O)[O-])c2Cl)c(=O)cc1COc1ccccc1" , report its measured pIC50. 6.18

###

assay: AUClast in ICR mouse at 10 mg/kg, po after 5 mins to 6 hrs; assay type: ADME, organism-based; parameters: dose 10 mg/kg, time upper 6 hr, time lower 0.083 hr, route oral; conditions: in vivo
attribute.measured: AUC(0-t) (ng·h/mL)
Please state the figure in ng·h/mL; there is no need to write the unit.

What does the record list as AUC(0-t) for "Cc1ccc(Oc2cn(C)c(COc3ccccc3)cc2=O)c(C)c1" ? 2480

###

assay: AUClast in ICR mouse at 10 mg/kg, iv after 5 mins to 6 hrs; type: ADME, organism-based; parameters: time lower 0.083 hr, dose 10 mg/kg, time upper 6 hr, route intravenous; details: in vivo
attribute.measured: AUC(0-t)
Give the figure together with its unit, number first.

Using the record for "Cc1ccc(Oc2cn(C)c(COc3ccccc3)cc2=O)c(C)c1" , report its AUC(0-t). 5.91 µg·h/mL

###

assay: Tmax in ICR mouse at 10 mg/kg, po after 5 mins to 6 hrs; type: ADME, organism-based; details: in vivo
attribute.measured: Tmax (min)
Give the value in min but do not write min after it.

Given the compound "Cc1ccc(Oc2cn(C)c(COc3ccccc3)cc2=O)c(C)c1" , what is its reported Tmax? 5

###

Biological target: Enoyl-[acyl-carrier-protein] reductase [NADPH] FabI (Staphylococcus aureus)
Sequence (Q6GI75 whole entry): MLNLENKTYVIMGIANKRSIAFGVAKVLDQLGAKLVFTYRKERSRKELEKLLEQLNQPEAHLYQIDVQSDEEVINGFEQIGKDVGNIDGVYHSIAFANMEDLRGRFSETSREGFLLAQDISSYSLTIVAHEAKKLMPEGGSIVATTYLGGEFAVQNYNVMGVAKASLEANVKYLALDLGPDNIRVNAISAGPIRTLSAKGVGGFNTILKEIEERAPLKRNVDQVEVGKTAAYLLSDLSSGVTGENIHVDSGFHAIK
Each record here notes measured pIC50.
A value of pIC50 is the negative decimal logarithm of a concentration given in moles per litre.

Answered examples (10):
>>> numeric_readout("O=c1cc(COc2ccccc2)[nH]cc1Oc1ccc(Cl)cc1Cl")
5.74
>>> numeric_readout("Cc1cc(Cl)ccc1Oc1coc(/C=C/c2ccoc2)cc1=O")
5.61
>>> numeric_readout("Cc1cc(Cl)ccc1Oc1cn(C)c(COc2ccccc2)cc1=O")
6.96
>>> numeric_readout("O=c1cc(/C=C/c2ccoc2)occ1Oc1ccc(Cl)cc1Cl")
5.72
>>> numeric_readout("O=c1cc(/C=C/c2cccnc2)occ1Oc1ccc(Cl)cc1Cl")
5.69
>>> numeric_readout("CCCCn1cc(Oc2ccc(Cl)cc2Cl)c(=O)cc1COc1ccccc1")
5.90
>>> numeric_readout("Cc1cc(Cl)ccc1Oc1cn(Cc2ccccc2)c(COc2ccccc2)cc1=O")
6.19
>>> numeric_readout("O=c1cc(/C=C/c2ccoc2)occ1Oc1cccc(Cl)c1Cl")
5.25
>>> numeric_readout("Cc1cc(Cl)ccc1Oc1coc(/C=C/c2cccnc2)cc1=O")
5.53
>>> numeric_readout("Cc1ccc(Oc2coc(COc3ccccc3)cc2=O)c(C)c1")
6.42

I'd like to know its pIC50. The compound in question is "Cn1cc(Oc2ccc(Cl)cc2Cl)c(=O)cc1COc1ccccc1" 6.92

###

assay: Oral bioavailability in ICR mouse at 10 mg/kg after 5 mins to 6 hrs; assay type: ADME, organism-based; settings: in vivo
attribute.measured: bioavailability (%)
Answer format: numeric, % implied, no suffix.

Could you tell me which bioavailability is on file for "Cc1ccc(Oc2cn(C)c(COc3ccccc3)cc2=O)c(C)c1" ? 41.9

###

assay: AUC (0 to infinity) in ICR mouse at 10 mg/kg, iv after 5 mins to 6 hrs; type: ADME, organism-based; set-up: dose 10 mg/kg, time infinity, route intravenous; details: in vivo
attribute.measured: AUC(0-inf) (ng·h/mL)
Only the number, expressed in ng·h/mL, is required.

Fill in the blank: the reported AUC(0-inf) of "Cc1ccc(Oc2cn(C)c(COc3ccccc3)cc2=O)c(C)c1" is ____. 5920

###

test: Cmax in ICR mouse at 10 mg/kg, po after 5 mins to 6 hrs; type: ADME, organism-based; design: dose 10 mg/kg, route oral; settings: in vivo
attribute.measured: Cmax (ng/mL)
Please state the figure in ng/mL; there is no need to write the unit.

Which Cmax reading was recorded for the compound "Cc1ccc(Oc2cn(C)c(COc3ccccc3)cc2=O)c(C)c1" ? 4040

###

assay: Mean residence time in ICR mouse at 10 mg/kg, iv after 5 mins to 6 hrs; type: ADME, organism-based; settings: in vivo
attribute.measured: MRT
Please give the number followed by its unit.

What does the data say about its MRT? Entry: "Cc1ccc(Oc2cn(C)c(COc3ccccc3)cc2=O)c(C)c1" 36.5 min

###

experiment: Terminal half life in ICR mouse at 10 mg/kg, po after 5 mins to 6 hrs; type: ADME, organism-based; conditions: in vivo, read-out: beta t1/2
attribute.measured: half-life (min)
Could you give me the number in min? Just the number is fine.

Fill in: half-life of "Cc1ccc(Oc2cn(C)c(COc3ccccc3)cc2=O)c(C)c1" is ___ 33.9

###

target: Enoyl-[acyl-carrier-protein] reductase [NADPH] FabI (Staphylococcus aureus, UniProt Q6GI75); test: Inhibition of Staphylococcus aureus FabI assessed as reduction in inhibition of reduction of trans-2-octenoyl N-acetylcysteamine substrate by spectrophotometry
attribute.measured: log10(IC50) (log10 of the value in µM)
Each number you see is log10 of IC50, and the unit inside the log is µM.

Look at this compound and give its reported log10(IC50). "O=c1cc(COc2ccccc2)occ1Oc1c(Cl)cccc1Cl" 0.15

For the compound shown here, "O=c1cc(/C=C/c2ccccc2)occ1Oc1c(Cl)cccc1Cl" , give the reported log10(IC50). 0.68

Quick one: log10(IC50) of "O=c1cc(COc2ccccc2)n(C2CC2)cc1Oc1c(Cl)cccc1Cl" ? 0.81

So what does the record say about log10(IC50) for "Cc1cc(Cl)ccc1Oc1coc(COc2ccccc2)cc1=O" ? -0.35

# lookup: log10(IC50) of "CCC/C=C/c1cc(=O)c(Oc2ccc(Cl)cc2C)co1" 0.81

# log10(IC50) lookup, item "O=c1cc(/C=C/c2cccnc2)occ1Oc1cccc(Cl)c1Cl" 0.54

###

target: Enoyl-[acyl-carrier-protein] reductase [NADPH] FabI (Staphylococcus aureus, UniProt Q6GI75)
attribute.measured: IC50 (µM)
All answers are understood in µM, so give the number only.

Below, 4 molecules whose answers are already recorded.
>>> numeric_readout("Cn1cc(Oc2cccc(Cl)c2Cl)c(=O)cc1COc1ccccc1")
0.22
>>> numeric_readout("Cc1cc(Cl)ccc1Oc1coc(/C=C/C(C)C)cc1=O")
5.78
>>> numeric_readout("Cc1cc(Cl)ccc1Oc1c[nH]c(COc2ccccc2)cc1=O")
0.4
>>> numeric_readout("O=c1cc(COc2ccccc2)[nH]cc1Oc1cccc(Cl)c1Cl")
0.84

Name the recorded IC50 for "O=c1cc(/C=C/c2ccccc2)occ1Oc1ccc(Cl)cc1Cl" . 4.53

What IC50 value was documented for this molecule, "Cc1ccc(Oc2cn(C3CC3)c(COc3ccccc3)cc2=O)c(C)c1" ? 3.17

Field request: IC50 | item: "O=c1cc(COc2ccccc2)[nH]cc1Oc1c(Cl)cccc1Cl" 4.98

What value of IC50 has been reported for the following molecule? "Cc1ccc(Oc2coc(/C=C/c3cccnc3)cc2=O)c(C)c1" 3.48

###

molecular target: Enoyl-[acyl-carrier-protein] reductase [NADPH] FabI (Staphylococcus aureus, UniProt Q6GI75)
Quick list: IC50 per entry.
Express it in µM; write the number only.

Name the recorded IC50 for "O=c1cc(COc2ccccc2)n(C2CC2)cc1Oc1cccc([N+](=O)[O-])c1Cl" . 17.6

Which IC50 is reported for this compound? "O=c1cc(COc2ccccc2)n(Cc2ccccc2)cc1Oc1ccc(Cl)cc1Cl" 1.42

Please give the measured IC50 for this compound: "O=c1cc(/C=C/c2cccnc2)occ1Oc1c(Cl)cccc1Cl" 3.74

Which value of IC50 has been reported for "Cc1ccc(Oc2cn(Cc3ccccc3)c(COc3ccccc3)cc2=O)c(C)c1" in the records? 2.69

Attribution: ChEMBL document CHEMBL3621046
